Here the recorded growth is given for each entry.
# Test system: NCI/ADR-RES ovarian
# assay_comment: NCI-60 one-dose screen, 48 h (100 = growth as untreated, 0 = no growth, -100 = all killed)
# reported_conditions: 10 µM unless noted
This is part of a sample that, as a whole, favours compounds with a hit. Of some 83,000 tested, about 20% had one in any assay.
The figure you give is taken to be in %; do not add the unit.

molecule	growth / %
C/C(=C(/c1ccc(O)cc1)c1ccc(OCCN(C)C)cc1)c1ccc(Cl)cc1	61.8

For this molecule ( `C#C[C@]1(O)CC[C@H]2[C@@H]3CC=C4c5sc(C6CC6)nc5CC[C@]4(C)[C@H]3CC[C@@]21C` ), measured growth is 84.6

For this molecule ( `CCOC(=O)c1c(Nc2ccccc2)nn2c(-c3ccc(OC)c(OC)c3)ccnc12` ), measured growth is 48.9

For this molecule ( `COc1ccc(CCN2C(=O)/C(=C/c3nc(CO)cs3)SC2=S)cc1` ), measured growth is 95.7

For this molecule ( `CCCCCCCCNC(=O)c1ccc(Cn2c(CCCC)nc3c(N)nc4ccccc4c32)cc1` ), measured growth is -62.2

For this molecule ( `COc1ccc(OC)c([C@H]2c3[nH]c4ccccc4c3C[C@H]3C(=O)N(CCCCCCC(=O)NO)CC(=O)N23)c1` ), measured growth is 99.5

For this molecule ( `Cc1cc(O)c2c(c1)C(=O)C(c1c(C)cc3c(c1O)C(=O)C=CC3=O)=CC2=O` ), measured growth is 100

For this molecule ( CCC(C)[C@H]1OC(=O)[C@H](C(C)C)N(C)C(=O)[C@@H](C(C)C)OC(=O)[C@H](C(C)C)N(C)C(=O)[C@@H](C(C)CC)OC(=O)[C@H](C(C)C)N(C)C1=O (stereo partly drawn) ), measured growth is 2.47

###

# Test system: SF-295 CNS
# assay_comment: NCI-60 one-dose screen, 48 h (100 = growth as untreated, 0 = no growth, -100 = all killed)
# reported_conditions: 10 µM unless noted
The panel holds about 83,000 compounds, 20% with a hit somewhere; the sample as a whole holds those more often.
Response field label: string, one of label 1 (growth strictly below 90%) or label 0.

molecule	answer_label
COC(=O)Nc1ccc(-c2nc(-c3cccc(O)c3)c(-c3ccnc(Br)c3)[nH]2)cc1	label 1
CCOC(=O)c1nn(-c2ccc(C)cc2)c(=O)c2c(N)c(C#N)c(-c3ccc(OC)cc3)cc12	label 0
C#Cc1ccc(NC(=O)c2ccc(/C=C/C(=O)c3nccn3C)cc2)c(F)c1	label 1
CC(C)(C)CC(C)(C)n1nnnc1C(Nc1ccccc1)c1cc2cccc3ccc4cccc1c4c32 (configuration not stated)	label 1
CS(=O)(=O)c1ccc(-c2nn(-c3ccccc3)cc2/C=C/C(=O)c2ccc(Br)cc2)cc1	label 0

Query string: growth strictly < 90% for this molecule? `CCCCCc1ccc(S(=O)(=O)N(C(C)=O)c2cccc(-c3csc(N(CCN4CCN(C)CC4)C(C)=O)n3)c2)cc1`
Result string: label 1

Query string: growth strictly < 90% for this molecule? `O=c1c2ccccc2nc(COc2ccccc2)n1/N=C/C=C/c1ccccc1`
Result string: label 0

Query string: growth strictly < 90% for this molecule? `Oc1ccc(CSc2nnc(-c3ccncc3)o2)c2cccnc12`
Result string: label 1

Query string: growth strictly < 90% for this molecule? `N/C(=N\c1nc2c(Cl)cccc2s1)C(Cl)(Cl)Cl`
Result string: label 1

Query string: growth strictly < 90% for this molecule? `IP(CCCSc1n(Cc2ccc3ccccc3c2)c(-c2ccccc2)c(-c2ccccc2)[n+]1Cc1ccc2ccccc2c1)(c1ccccc1)(c1ccccc1)c1ccccc1`
Result string: label 1

Query string: growth strictly < 90% for this molecule? `O=C(NNc1nc2cc(F)cc(F)c2n2cccc12)c1ncccn1`
Result string: label 1

Query string: growth strictly < 90% for this molecule? `CC(=O)Nc1cccc(-n2cnc3cc(-c4ccc(O)cc4)ccc32)c1`
Result string: label 1

Query string: growth strictly < 90% for this molecule? `COc1cc(/C=C2\SC(=O)NC2=O)ccc1OCC(=O)Nc1ccc(C(=O)/C=C/c2cc3ccccc3nc2Cl)cc1`
Result string: label 1
